EXPERIMENTAL TARGET: RSK3 (Homo sapiens (Human))
Sequence (Q15349 whole entry): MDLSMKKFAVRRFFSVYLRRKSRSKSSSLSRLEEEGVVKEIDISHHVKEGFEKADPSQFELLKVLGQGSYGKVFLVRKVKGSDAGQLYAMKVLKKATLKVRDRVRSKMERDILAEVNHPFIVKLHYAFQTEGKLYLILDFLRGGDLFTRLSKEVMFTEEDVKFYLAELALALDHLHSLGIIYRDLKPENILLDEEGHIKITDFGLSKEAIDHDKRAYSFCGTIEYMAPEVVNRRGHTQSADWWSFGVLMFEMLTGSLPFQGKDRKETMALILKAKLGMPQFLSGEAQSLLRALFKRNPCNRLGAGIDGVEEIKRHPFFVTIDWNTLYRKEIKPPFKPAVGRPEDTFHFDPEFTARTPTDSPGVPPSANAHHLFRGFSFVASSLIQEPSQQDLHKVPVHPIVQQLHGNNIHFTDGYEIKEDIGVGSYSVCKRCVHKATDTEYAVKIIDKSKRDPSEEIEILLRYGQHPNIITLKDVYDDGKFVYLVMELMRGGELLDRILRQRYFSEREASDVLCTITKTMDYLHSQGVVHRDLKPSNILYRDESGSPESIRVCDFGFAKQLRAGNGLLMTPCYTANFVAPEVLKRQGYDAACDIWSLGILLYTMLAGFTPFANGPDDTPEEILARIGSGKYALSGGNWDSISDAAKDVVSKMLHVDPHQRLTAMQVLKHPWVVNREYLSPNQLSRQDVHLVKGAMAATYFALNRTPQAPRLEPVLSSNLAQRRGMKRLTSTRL
MEASUREMENT NOTES: KINATIV assay
Assay type: cell-based
CONDITIONS: 1 μM, 90 minutes, BCWM.1 cells
Kindly state % change of MS signal compared to control sample for each of the entries shown.

Guide cases for % change of MS signal compared to control sample, answers given:
MOLECULE	MEASUREMENT
C=CC(=O)N1CCCCC(Nc2nccc(Nc3ncc(C(=O)Nc4c(C)cccc4C)s3)n2)C1 (stereo not shown)	12.6%
C=CC(=O)N1CCC(CNc2nccc(Nc3ncc(C(=O)Nc4c(C)cccc4C)s3)n2)C1 (racemic)	2.9%
C=CC(=O)N1CC[C@@H](Nc2nccc(Nc3ncc(C(=O)Nc4c(C)cccc4C)s3)n2)C1	16.8%

Moving on to another molecule below.
Lab note: molecule C=CC(=O)N1CCC(Cn2ccc(Nc3ncc(C(=O)Nc4c(C)cccc4Cl)s3)n2)C1 (stereo not shown) tested on RSK3 (Homo sapiens (Human)); recorded % change of MS signal compared to control sample was 22.3%
